test: in vitro
Simple rule here: CC50 less than 100 µM is T, otherwise F.

Q. Consider the compound COc1cc(CN2C(=O)C3(C)SSCC2C(=O)N3C)cc(OC)c1OC (stereo not drawn) [Compound 3] . Is its CC50 strictly less than 100 µM?
A. T

Q. Try CN1C(=O)C2(C)SSCC1C(=O)N2C (stereo not drawn) [Compound 1] next.
A. F

Others:
Q. Consider the compound CN1C(=O)C2(Cc3ccccc3)SSCC1C(=O)N2C (stereo not drawn) [Compound 19] . Is its CC50 strictly less than 100 µM?
A. F

Q. Try CN1CCN2C(=O)C3CSSC2(C1)C(=O)N3C (stereo not drawn) [Compound 23] next.
A. F

Q. Try C=CCN1C(=O)C2SSC1C(=O)N2CC=C [Control compound (A5), reference compound] next.
A. T

Q. Try CN1C(=O)C2CSSC1(C)C(=O)N2Cc1ccccn1 (stereo not drawn) [Compound 6] next.
A. F

Q. Try CN1C(=O)C2CSSC1(C)C(=O)N2Cc1ccc2ccccc2n1 (stereo not drawn) [Compound 5] next.
A. F

Q. Try CN1C(=O)C2CSSC1(C)C(=O)N2Cc1ccccc1 (stereo not drawn) [Compound 2] next.
A. F

Q. Try CN1C(=O)C2CSSC1(C)C(=O)N2Cc1cnn(C)c1 (stereo not drawn) [Compound 13] next.
A. F

Q. Try O=C1C2CSSC3(COCCN13)C(=O)N2Cc1ccccc1 (stereo not drawn) [Compound 8] next.
A. F

Q. Try Cc1cccc(CN2C(=O)C3(C)SSCC2C(=O)N3C)n1 (stereo not drawn) [Compound 12] next.
A. F
